All figures here come from ChEMBL document CHEMBL1921774.

# maps each entry to its Ki
ASSAYED_TARGET: D(2) dopamine receptor (Homo sapiens)
Sequence (P14416 whole entry): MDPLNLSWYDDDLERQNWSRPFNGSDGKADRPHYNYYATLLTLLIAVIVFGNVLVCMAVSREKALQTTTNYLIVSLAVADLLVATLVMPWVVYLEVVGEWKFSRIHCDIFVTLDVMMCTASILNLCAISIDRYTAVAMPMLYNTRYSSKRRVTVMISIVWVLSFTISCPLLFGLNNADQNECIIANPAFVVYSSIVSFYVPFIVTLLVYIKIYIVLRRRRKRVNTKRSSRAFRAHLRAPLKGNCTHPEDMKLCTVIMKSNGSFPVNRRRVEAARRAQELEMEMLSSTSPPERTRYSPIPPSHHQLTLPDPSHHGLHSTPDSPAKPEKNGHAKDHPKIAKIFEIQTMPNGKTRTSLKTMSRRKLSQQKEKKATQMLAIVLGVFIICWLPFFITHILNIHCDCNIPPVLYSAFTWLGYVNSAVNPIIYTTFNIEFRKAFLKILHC
ASSAY_OVERVIEW: Displacement of [3H]spiperone from human dopamine D2long receptor expressed in CHO cells
Assay type: cell-based
Give the value in µM but do not write µM after it.

Below: 3 molecules and their reported Ki.
{"LINE_NOTATION": "COc1cc(CN2CCN(c3ccc4c(c3)OCCO4)CC2)ccc1F", "UNIT_SYMBOL": "µM", "Ki": 17}
{"LINE_NOTATION": "Fc1ccc(CN2CCN(c3ccc4c(c3)OCCO4)CC2)cn1", "UNIT_SYMBOL": "µM", "Ki": 29}
{"LINE_NOTATION": "Fc1ccc(CN2CCN(c3ccc4c(c3)OCCO4)CC2)cc1", "UNIT_SYMBOL": "µM", "Ki": 7.6}

Below: the item to evaluate.
Query :: Value wanted: Ki (D(2) dopamine receptor (Homo sapiens)) of entry Oc1cc(CN2CCN(c3ccc4c(c3)OCCO4)CC2)ccc1F
Result :: 9
